assay: viability loss of HPDE-C7K cells – cell-based, fluorescence, HTS, primary screen (AID 431); conditions: HPDE-C7K KRASV12 cells, Alamar Blue viability, 48 h; at 10 µM; active compounds read high;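 note: 0% = DMSO solvent wells and 100% = doxorubicin-treated wells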
The whole screen tested about 63,000 compounds, of which about 1,100 (1.7%) were called active. The list comes from a sample in which actives are over-represented; it also holds close analogues and randomly drawn compounds. Potency and affinity values are given separately.
Each item that follows carries a reported cytotoxicity.
Write down the numeric answer in % and omit the unit.

CCCCNC(=O)C1CCCN1C(=O)Nc1cccc(OC)c1 (stereo unspecified): -7.7

State its cytotoxicity: `COc1ccc(NS(=O)(=O)c2ccc(Oc3ncccn3)cc2)cc1`
18.2

State its cytotoxicity: `COc1cc(NS(=O)(=O)c2ccc(C)cc2)c2ncccc2c1`
69.8
